Here, each record is paired with measured WT (pEC50 against wild type HIV-LAI strain) data.
Test system: HIV-1 strain LAI
Assay: Cellular anti-HIV assay (MTT), wild type strain
Format: cell-based
Conditions: wild type HIV-LAI strain; Table 8
Answer with a bare number; do not write a unit.

Cc1cc(-c2nc(-c3ccc(S(=O)(=O)N(CC(C)C)CC(O)C(Cc4ccccc4)NC(=O)OC4COC5OCCC45)cc3)co2)no1 (stereo not drawn)
8.4
Cc1nc(-c2ccc(S(=O)(=O)N(CC(C)C)CC(O)C(Cc3ccccc3)NC(=O)OC3COC4OCCC34)cc2)co1 (stereo not drawn)
8.4

Reported WT (pEC50 against wild type HIV-LAI strain) ( CC(C)CN(CC(O)C(Cc1ccccc1)NC(=O)OC1COC2OCCC12)S(=O)(=O)c1ccc(-c2csc(NCCCN(C)C)n2)cc1 (stereo not drawn) ) = 7.5

Reported WT (pEC50 against wild type HIV-LAI strain) ( CC(C)CN(CC(O)C(Cc1ccccc1)NC(=O)OC1COC2OCCC12)S(=O)(=O)c1ccc(-c2csc(Nc3ccncc3)n2)cc1 (stereo not drawn) ) = 7.6

Reported WT (pEC50 against wild type HIV-LAI strain) ( CC(=O)Nc1nc(-c2ccc(S(=O)(=O)N(CC(C)C)CC(O)C(Cc3ccccc3)NC(=O)OC3COC4OCCC34)cc2)cs1 (stereo not drawn) ) = 8.3

Reported WT (pEC50 against wild type HIV-LAI strain) ( COc1cccc(-c2nc(-c3ccc(S(=O)(=O)N(CC(C)C)CC(O)C(Cc4ccccc4)NC(=O)OC4COC5OCCC45)cc3)co2)c1 (stereo not drawn) ) = 8.0

----------
Tested on: mock-infected MT4 cells
Assay: Toxicity on mock-infected cells (MTT)
Settings: pCC50 with mock transfected cells
Here, each record is paired with measured Tox (pCC50) data.

CC(C)CN(CC(O)C(Cc1ccccc1)NC(=O)OC1COC2OCCC12)S(=O)(=O)c1ccc(-c2csc(Nc3ccncc3)n2)cc1 (stereo not drawn) [Compound 5]
4.95
COc1cccc(-c2nc(-c3ccc(S(=O)(=O)N(CC(C)C)CC(O)C(Cc4ccccc4)NC(=O)OC4COC5OCCC45)cc3)co2)c1 (stereo not drawn) [Compound 44]
<4.49

Reported Tox (pCC50) ( CC(C)CN(CC(O)C(Cc1ccccc1)NC(=O)OC1COC2OCCC12)S(=O)(=O)c1ccc(-c2coc(-c3ccc([N+](=O)[O-])cc3)n2)cc1 (stereo not drawn) [Compound 43] ) = <4.0

----------
Tested on: HIV-1 strain LAI
Experiment: Cellular anti-HIV assay (MTT), wild type strain
Type: cell-based
Conditions: wild type HIV-LAI strain; Table 8
reported_property: WT (pEC50 against wild type HIV-LAI strain)

CC(C)Cc1nc(-c2ccc(S(=O)(=O)N(CC(C)C)CC(O)C(Cc3ccccc3)NC(=O)OC3COC4OCCC34)cc2)co1 (stereo not drawn) [Compound 49]
8.1

Reported WT (pEC50 against wild type HIV-LAI strain) ( CC(C)CN(CC(O)C(Cc1ccccc1)NC(=O)OC1COC2OCCC12)S(=O)(=O)c1ccc(-c2coc(-c3cccs3)n2)cc1 (stereo not drawn) [Compound 50] ) = 8.0

Reported WT (pEC50 against wild type HIV-LAI strain) ( CC(=O)Nc1nc(-c2ccc(S(=O)(=O)N(CC(C)C)CC(O)C(Cc3ccccc3)NC(=O)OC3COC4OCCC34)cc2)c[nH]1 (stereo not drawn) [Compound 32] ) = 7.7

Reported WT (pEC50 against wild type HIV-LAI strain) ( Cc1cccc(C)c1OCC(=O)N[C@@H](Cc1ccccc1)[C@H](O)CN(CC(C)C)S(=O)(=O)c1ccc(-c2cc[nH]n2)cc1 [Compound 24] ) = 7.1

Reported WT (pEC50 against wild type HIV-LAI strain) ( CCCc1nc(-c2ccc(S(=O)(=O)N(CC(C)C)CC(O)C(Cc3ccccc3)NC(=O)OC3COC4OCCC34)cc2)co1 (stereo not drawn) [Compound 40] ) = 8.5

Reported WT (pEC50 against wild type HIV-LAI strain) ( CC(C)CN(C[C@@H](O)[C@H](Cc1ccccc1)NC(=O)O[C@H]1CO[C@H]2OCC[C@H]21)S(=O)(=O)c1ccc(-c2noc(-c3ccco3)n2)cc1 [Compound 38] ) = 8.4
